Assign inhibition at 10 µM to each entry below.
Biological target: human GPR84 receptor (Homo sapiens)
Construct: host or cells: HEK293, transient transfection
Sequence (Q9NQS5 whole entry): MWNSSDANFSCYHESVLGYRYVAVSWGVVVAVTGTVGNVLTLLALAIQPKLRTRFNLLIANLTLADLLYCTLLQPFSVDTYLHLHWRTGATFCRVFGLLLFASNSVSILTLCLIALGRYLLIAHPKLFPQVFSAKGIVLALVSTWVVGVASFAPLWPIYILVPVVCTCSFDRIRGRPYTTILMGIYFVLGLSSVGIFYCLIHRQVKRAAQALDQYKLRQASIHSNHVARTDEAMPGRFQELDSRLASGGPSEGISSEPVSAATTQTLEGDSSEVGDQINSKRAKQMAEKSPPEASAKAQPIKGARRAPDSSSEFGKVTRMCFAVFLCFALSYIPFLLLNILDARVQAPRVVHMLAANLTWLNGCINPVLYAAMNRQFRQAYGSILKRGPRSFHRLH
Experiment: Gαi biosensor BRET assay in HEK293 cells (antagonism of ZQ-16)
Type: cell-based
Conditions: HEK293, single concentration 10 μM (designated F)
Method: Background—The following assays can be used for determination of GPR84 activation in living HEK293 cells. […] Bioluminescence Resonance Energy Transfer (BRET) Measurement—HEK293 cells were transfected with GPR84-Rluc8 and rGFP-FYVE for the EEs trafficking biosensor or with GPR84, Gαi2-Rluc8, GFP10-Gγ2, and Gβ1 for the Gαi biosensor. […] The BRET signal was calculated as the ratio of light emitted by acceptor (GFP10, rGFP) over the light emitted by donor (Rluc8). […]

# molecule, inhibition at 10 µM
rows = [
    ("Cc1cc(C#CC2CC2)cnc1-c1cn(CC2CCC(C)(C)O2)nn1 (stereo not shown)", "25 to 50%"),
    ("Cc1cc(C#CC2CC2)cnc1-c1cn(CC2OCC(c3ccccc3)CO2)nn1 (stereo not shown)", "≤ 25%"),
    ("COC(Cc1cc(C#CC2CC2)ccc1C)c1cn(CC2OCC(C)(C)CO2)nn1 (stereo not shown)", "> 75%"),
]

inhibition at 10 µM recorded for this molecule, `CC1(C)COC(Cn2cncc2-c2ncc(C#CC3CC3)cc2OC2CC2)OC1` , is ≤ 25%
